Data origin, for the record: patent US8614201B2

# EXPERIMENTAL_SYSTEM: Human TRPA1 (Homo sapiens, UniProt O75762)
# Sequence (O75762 whole entry): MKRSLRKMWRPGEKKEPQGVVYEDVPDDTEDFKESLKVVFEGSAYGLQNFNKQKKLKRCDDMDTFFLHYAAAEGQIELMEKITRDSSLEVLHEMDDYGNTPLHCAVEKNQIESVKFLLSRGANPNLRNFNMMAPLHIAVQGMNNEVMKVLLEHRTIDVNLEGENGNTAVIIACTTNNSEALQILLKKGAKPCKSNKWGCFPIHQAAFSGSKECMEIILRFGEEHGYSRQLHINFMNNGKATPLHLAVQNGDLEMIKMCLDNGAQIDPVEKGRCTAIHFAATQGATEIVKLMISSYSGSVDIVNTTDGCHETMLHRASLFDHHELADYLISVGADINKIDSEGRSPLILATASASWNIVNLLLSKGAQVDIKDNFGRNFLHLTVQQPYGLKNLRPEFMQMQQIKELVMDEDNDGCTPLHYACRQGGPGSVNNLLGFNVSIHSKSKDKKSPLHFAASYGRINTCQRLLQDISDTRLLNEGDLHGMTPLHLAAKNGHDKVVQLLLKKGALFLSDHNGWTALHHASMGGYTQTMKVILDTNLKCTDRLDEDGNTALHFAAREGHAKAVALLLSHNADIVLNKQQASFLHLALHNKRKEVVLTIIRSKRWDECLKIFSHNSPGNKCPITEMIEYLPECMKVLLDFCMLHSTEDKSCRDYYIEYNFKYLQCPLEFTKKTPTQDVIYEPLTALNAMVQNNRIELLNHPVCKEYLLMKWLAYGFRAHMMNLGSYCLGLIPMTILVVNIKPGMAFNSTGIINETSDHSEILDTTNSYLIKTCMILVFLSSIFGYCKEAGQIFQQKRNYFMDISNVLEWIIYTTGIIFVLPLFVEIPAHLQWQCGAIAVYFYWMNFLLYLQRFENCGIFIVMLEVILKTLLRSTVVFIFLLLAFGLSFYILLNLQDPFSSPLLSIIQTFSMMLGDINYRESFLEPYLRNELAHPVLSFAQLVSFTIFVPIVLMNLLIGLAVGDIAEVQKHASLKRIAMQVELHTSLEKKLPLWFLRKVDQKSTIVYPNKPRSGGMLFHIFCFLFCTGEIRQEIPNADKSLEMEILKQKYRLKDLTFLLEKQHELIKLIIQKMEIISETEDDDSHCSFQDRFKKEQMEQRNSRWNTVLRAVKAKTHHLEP
# MEASUREMENT_NOTES: Alternative TRPA1 Ca2+ fluorometry assay (hTRPA1/TREx-HEK293 cells, Fluo-4, FDSS 6000)
# Type: cell-based
# Design: expressed in transfected cells
# CONDITION: Fluo-4-AM, agonist 6,11-dihydro-5H-dibenzo[b,e]azepine-10-carboxylic acid methyl ester 25 nM, procedure used for Examples 184, 190 to 192, 194 to 316
pIC50: −log10 of the molar value.
QUANTITY_NAME: pIC50

Here are 2 compounds together with their reported answers.
> print(dat)
                         chemical.structure                       experimental.system  quantity.name  readout.value
1  Cc1ccc(S(=O)(=O)N2CCC[C@H]2C(=O)NCc2cc(-c3ccc(C(F)(F)F)cc3)nc(N3CCN(c4ccccc4F)CC3)n2)cc1Cl  Human TRPA1 (Homo sapiens, UniProt O75762)          pIC50         < 5.00
2  CC(=O)c1ccc(S(=O)(=O)N2CCC[C@H]2C(=O)NCc2cc(-c3ccc(C(F)(F)F)cc3)nc(N3CCN(c4ccccc4F)CC3)n2)cc1  Human TRPA1 (Homo sapiens, UniProt O75762)          pIC50         < 5.00

From here, focus on the item given below.
Form field: reported pIC50 of CCOC(=O)C1CCN(c2nc(CNC(=O)[C@@H]3CCCN3S(=O)(=O)c3ccc(F)cc3)cc(-c3ccc4c(c3)OCO4)n2)CC1 ~5.75

----------
# EXPERIMENTAL_SYSTEM: UniProt O75762
# MEASUREMENT_NOTES: Assay 1: In vitro cellular testing of TRPA1 modulation (CHO-TREx, Fluo-3 calcium fluorescence, AITC agonist)
# Assay type: cell-based
# Parameters: expressed in transfected cells; host or cells: CHO-TREx cells (Invitrogen), vector pcDNA4/TO
# CONDITION: CHO-TREx cells expressing human TRPA1; Fluo-3 fluorescence (FLIPR/Tetra); agonist 15 μM allyl isothiocyanate (AITC); 30 minute antagonist incubation
pIC50: −log10 of the molar value.
QUANTITY_NAME: pIC50

Here are 5 molecules together with their reported answers.
MOLECULE	pIC50
CC(Nc1cc(CNC(=O)[C@@H]2CC(F)(F)CN2S(=O)(=O)c2ccc(Cl)s2)cc(-c2ccc(C(F)(F)F)cc2)n1)c1ccccn1 (stereo partly drawn) [Example 415]	6.24
CC(Nc1cc(CNC(=O)[C@@H]2CC(F)(F)CN2S(=O)(=O)c2ccc(F)cc2)cc(-c2ccc(C(F)(F)F)cc2)n1)c1ccccc1 (stereo partly drawn) [Example 410]	5.90
CNC1CCN(c2nc(CNC(=O)[C@@H]3CCCN3S(=O)(=O)c3ccc(Cl)s3)cc(-c3ccc(C(F)(F)F)cc3)n2)C1 (stereo partly drawn) [Example 41]	5.53
CC(O)CNc1nc(CNC(=O)[C@@H]2CCCN2S(=O)(=O)c2ccc(Cl)s2)cc(-c2ccc(C(F)(F)F)cc2)n1 (stereo partly drawn) [Example 45]	5.69
C[C@H]1CCCN1c1nc(CNC(=O)[C@@H]2CCCN2S(=O)(=O)c2ccc(Cl)s2)cc(-c2ccc(C(F)(F)F)cc2)n1 [Example 31]	8.05

I = CC(NC(=O)[C@@H]1CCCN1S(=O)(=O)c1ccc(F)cc1)c1cc(-c2ccc(C(F)(F)F)cc2)ncn1 (single isomer, unassigned) [Example 181]
II = CN(C)CCN(C)c1nc(CNC(=O)[C@@H]2CCCN2S(=O)(=O)c2ccc(F)cc2)cc(-c2ccc(C(F)(F)F)cc2)n1 [Example 18]
III = O=C(NCc1cc(-c2ccc(C(F)(F)F)cc2)ncn1)[C@@H]1CCCN1S(=O)(=O)c1cc(Cl)c(Cl)s1 [Example 165]
Sequence the entries by pIC50, beginning with the highest number. List the labels in the requested order. III, I, II
(III: 7.96, I: 6.22, II: 5.73)
